Data origin, for the record: PubChem BioAssay (EPA / NIEHS)

# assay: ATG_TCF_b_cat_CIS: Attagene CIS-FACTORIAL HepG2 Assay for human T-Cell-Factor with beta-catenin (TCF/b-cat) (AID 2282965)
# reported conditions: HepG2 TCF/beta-catenin cis-reporter transcription, actives raise or lower the signal
Calls of active or inactive are those of the source. Rule for the calls: active = hit-call score of the fitted dose curve at least 0.9, where 1 is the maximum; inactive = score below 0.9.
Possible outcomes: TRUE (active), FALSE (inactive)

molecule	qualitative label
CC(C)(C)C1CCCCC1O (stereo not drawn)	FALSE
CCN(CCC#N)c1ccccc1	FALSE
CCOC=C(C(=O)OCC)C(=O)OCC	FALSE
C=CC(C)(CCC=C(C)C)OC(C)=O (stereo not drawn)	FALSE
CC[N+](CC)(CC)Cc1ccccc1	FALSE
FC(F)(F)N1C(F)(F)C(F)(F)OC(F)(F)C1(F)F	FALSE
CN(Cc1cnc2nc(N)nc(N)c2n1)c1ccc(C(=O)N[C@@H](CCC(=O)O)C(=O)O)cc1	FALSE
CC(O)COc1ccccc1 (stereo not drawn)	FALSE
C[C@]12CC[C@@H]3c4ccc(O)cc4CC[C@H]3[C@@H]1C[C@@H](O)[C@@H]2O	FALSE
c1ccc2c(c1)CCC2	FALSE
O=C(F)C(F)(F)C(F)(F)C(F)(F)C(F)F	FALSE
N=C(N)c1ccc(OCCCCCOc2ccc(C(=N)N)cc2)cc1	TRUE
COC(=O)C(F)(F)C(F)(F)C(F)(F)C(F)(F)C(F)(F)F	FALSE
CC(=O)Nc1ccc(S(N)(=O)=O)cc1	FALSE
CCOC(=O)CN[C@@H](C(=O)N1CC[C@H]1C(=O)NCc1ccc(/C(N)=N/O)cc1)C1CCCCC1	FALSE
O=C(c1ccccc1)c1ccccc1	FALSE
CC(=O)CC(C)C	FALSE
Clc1ccc(Nc2nnc(Cc3ccncc3)c3ccccc23)cc1	TRUE
CNNCc1ccc(C(=O)NC(C)C)cc1	FALSE
Cc1[nH]nc2c1N=C(c1ccccc1Cl)c1cc([N+](=O)[O-])ccc1N2	TRUE
O=P(O)(O)CCC(F)(F)C(F)(F)C(F)(F)C(F)(F)C(F)(F)C(F)(F)F	FALSE
CCCCCCCCCCCCCC[n+]1ccccc1	FALSE
CCCCCCCCCC=CCC1CC(=O)OC1=O (stereo not drawn)	FALSE
CCCCCCCCCCCCCCCC(=O)OC	FALSE
Cc1ccc(C)c(S(=O)(=O)O)c1	FALSE
CCCCCc1ccc(O)cc1	FALSE
C=CCOCC(CO)(CO)CO	FALSE
CCC1CO1 (stereo not drawn)	FALSE

====

# assay: Tanguay_ZF_120hpf_PE_legacy: (Legacy) Oregon State University Tanguay Lab 120 Hour Post-fertilization zebrafish Assay for Pericardial Edema (AID 2283640);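 for AC50: potency for increased incidence of pericardial edema versus DMSO baseline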
Records with an inconclusive call do not appear. Activity calls are given as the source filed them. How the source made its calls: active means hit-call score of the fitted dose curve at least 0.9, where 1 is the maximum; inconclusive means response in the unintended direction; inactive means score below 0.9.
observable: AC50

compound	measured result
CC(=O)Nc1ccc(O)cc1	inactive
CCCCc1oc2ccccc2c1C(=O)c1cc(I)c(OCCN(CC)CC)c(I)c1	inactive
CCCCCCCCCCCCOS(=O)(=O)O	inactive
CCCCCCCCCCCCCCC	inactive
O=C(c1ccccc1)c1ccccc1	inactive
CS(=O)(=O)c1ccc([C@@H](CC2CCCC2)C(=O)Nc2cnccn2)cc1Cl	inactive
CCC(C)c1ccccc1O (stereo not given)	inactive
O=C(CCCN1CCC(O)(c2ccc(Cl)cc2)CC1)c1ccc(F)cc1	3.98 µM (active)
CCCCC=O	42.9 µM (active)
CN(C)CCOC(c1ccccc1)c1ccccc1	26.7 µM (active)
